- Test system: panel of cancer cell lines
- experiment-notes: Cell viability (CellTiter-Glo) dose-response across cancer cell line panel;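 further: after 72 h compound incubation with CellTiter-Glo ATP readout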
- Type: cell-based, human
- run-conditions: Homo sapiens, L-428, L-428 cells
pEC50: −log10 of the molar value.

compound: COCc1ccccc1NCc1ccc([C@@H]2[C@H](O)CCCc3cncn32)c(-c2ccccc2Cl)c1 [CSN5i-2e]
pEC50: 4.93

----------
- System: panel of cancer cell lines
- experiment-notes: Cell viability (CellTiter-Glo) dose-response across cancer cell line panel;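 further: after 72 h compound incubation with CellTiter-Glo ATP readout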
- Type: cell-based, human
- run-conditions: Homo sapiens, C3A
observable: EC50

compound: NS(=O)(=O)OC[C@@H]1C[C@@H](n2ccc3c(N[C@H]4CCc5ccccc54)ncnc32)C[C@@H]1O [MLN4924]
value-reported: > 30 µM
--
compound: COCc1ccccc1NCc1ccc([C@H]2[C@@H](O)CCCc3cncn32)c(-c2ccccc2Cl)c1 [CSN5i-2]
value-reported: > 30 µM
